target: Recombinant human procathepsin K (activated), Cat K (Homo sapiens); assay: Cat K inhibition assay (fluorogenic substrate z-Phe-Arg-AMC); conditions: 30 µM z-Phe-Arg-AMC, pH 5.5, 10 min preincubation, 20 min at 37 °C; maximal inhibition set at 100% in curve fitting
Sequence (P43235 115-329): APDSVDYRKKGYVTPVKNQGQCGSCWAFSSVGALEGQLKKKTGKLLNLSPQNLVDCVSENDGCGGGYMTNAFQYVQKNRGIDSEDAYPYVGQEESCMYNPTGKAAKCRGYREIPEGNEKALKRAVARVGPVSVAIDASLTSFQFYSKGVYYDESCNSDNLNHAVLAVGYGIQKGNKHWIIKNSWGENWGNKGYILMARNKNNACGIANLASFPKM
Endpoint: IC50 (µM)
Report only the number, with the unit µM understood.

>>> reading("C=Cc1c(C)c2cc3nc(c4c5[nH]c(cc6nc(cc1[nH]2)C(C)=C6CC)c(C)c5C(=O)[C@@H]4C(=O)OC)[C@@H](CCC(=O)OC/C=C(\\C)CCC[C@H](C)CCC[C@H](C)CCCC(C)C)[C@@H]3C")
14.1
>>> reading("C=Cc1c(C)c2cc3nc(c4c5[nH]c(cc6nc(cc1[nH]2)C(C=O)=C6CC)c(C)c5C(=O)C4C(=O)OC)C(CCC(=O)OCC=C(C)CCCC(C)CCCC(C)CCCC(C)C)C3C (centres unmarked)")
67.3
>>> reading("C=Cc1c(C)c2cc3nc(c4c5[nH]c(cc6nc(cc1[nH]2)C(C)=C6CC)c(C)c5C(=O)[C@@H]4C(=O)OC)[C@@H](CCC(=O)O)[C@@H]3C [pheophorbide a]")
66.6

Consider C[C@@H]1O[C@@H](O[C@H]2C(=O)[C@@H](O)[C@H](C)O[C@@H]2c2c(O)cc3oc(-c4ccc(O)c(O)c4)cc(=O)c3c2O)[C@H](O)[C@H](O)[C@H]1O . Its measured IC50 is 61.6

Consider C=Cc1c(C)c2cc3nc(c4c5[nH]c(cc6nc(cc1[nH]2)C(C=O)=C6CC)c(C)c5C(=O)[C@@H]4C(=O)OC)[C@@H](CCC(=O)O)[C@@H]3C [pheophorbide b] . Its measured IC50 is 0.42
